METHOD_SUMMARY: Cytotoxicity against in human MT4 cells after 5 days by XTT assay
Assay type: cell-based
STUDY_CONDITIONS: time 5 day
Answer each item with its documented CC50 at 120 h.
Number in µM, nothing else.

For the compound `COC(=O)[C@H](Cc1ccc(O[P@](=O)(CO[C@H](C)Cn2cnc3c(N)ncnc32)N[C@@H](C)C(=O)OC(C)C)cc1)NC(=O)OCc1ccccc1` , give its measured CC50 at 120 h value.
8.5

For the compound `COC(=O)[C@H](Cc1ccc(O[P@@](=O)(CO[C@H](C)Cn2cnc3c(N)ncnc32)N[C@@H](C)C(=O)OC(C)C)cc1)N(C)C` , give its measured CC50 at 120 h value.
38

For the compound `CC(C)OC(=O)[C@H](C)N[P@](=O)(CO[C@H](C)Cn1cnc2c(N)ncnc21)Oc1ccc(C[C@H](NC(=O)OCc2ccccc2)C(=O)OC2CCCC2)cc1` , give its measured CC50 at 120 h value.
10
